Species on record: Rattus norvegicus
Assay: Open TG-GATES - Regimen: Single
Type: toxicity, organism-based, Sprague-Dawley
Set-up: regimen Single, gender Male, age 6 weeks
Conditions: in vivo, po, 1000 mg/kg, 3 h, tissue Kidney, route gavage, dose level High
molecules and their reported KIDNEY_R
Value expressed in g; do not type the unit.

- Smiles str: "CNC(=C[N+](=O)[O-])NCCSCc1ccc(CN(C)C)o1"
  Value units: "g"
  KIDNEY_R: 1

Okay, next one:
Incoming: Find the recorded KIDNEY_R belonging to O=C(OC[C@H]1O[C@@H](OC(=O)c2cc(O)c(O)c(OC(=O)c3cc(O)c(O)c(O)c3)c2)[C@H](OC(=O)c2cc(O)c(O)c(OC(=O)c3cc(O)c(O)c(O)c3)c2)[C@@H](OC(=O)c2cc(O)c(O)c(OC(=O)c3cc(O)c(O)c(O)c3)c2)[C@@H]1OC(=O)c1cc(O)c(O)c(OC(=O)c2cc(O)c(O)c(O)c2)c1)c1cc(O)c(O)c(OC(=O)c2cc(O)c(O)c(O)c2)c1 and report it.
Outgoing: 0.9
